System: MALME-3M melanoma
Experiment: NCI tumour cell line growth inhibition, 48 h
Kindly state TGI for each of the entries shown.
Give bare numbers, in µM.

Clc1ccc2nc(Cl)c3ccccc3c2c1
71.1
COC1C(CO)OC(n2c3c(Cl)cccc3c3c4c(c5c6cccc(Cl)c6[nH]c5c32)C(=O)NC4=O)C(O)C1O (centres undefined)
1.12
C1=CN2C[n+]3ccc4ccccc4c3N=C2c2ccccc21
3.46

Next, consider the following compound.
Query: I would be grateful if you could share the reported TGI for Cc1ccc2c(=O)cc(Cc3csc4ccccc34)[nH]c2n1 .
Response: 62.1

###

Provide the reported TGI of each item.
Test system: SNB-19 CNS
Assay: NCI tumour cell line growth inhibition, 48 h

Cc1ccc(/C=C/C(=O)c2ccc([N+](=O)[O-])cc2)cc1
> 100 µM

For the 4 compounds below, give their TGI values.
1. O=C(Cc1csc2nc(-c3ccc(Br)cc3)cn12)N/N=C/c1ccc(Cl)cc1Cl
2. C1=CN2C[n+]3ccc4ccccc4c3N=C2c2ccccc21
3. Clc1ccc2nc(Cl)c3ccccc3c2c1
4. CCCCCCCCCCCCCCCC(=O)OCC1OC(OC)C(NC(=O)N(CCCl)N=O)C(O)C1O (configuration not stated)

Response:
1. > 100 µM
2. 33.3 µM
3. 40.2 µM
4. > 67.2 µM
